# testedTarget: NMDA receptor (NMDAR; GluN2B-containing) (Mus musculus, UniProt P35438+Q01097)
# Construct: native receptor in DIV 10–12 cerebrocortical neurons; with GluN1
# Sequence (Q01097 27-1482, other chains not shown): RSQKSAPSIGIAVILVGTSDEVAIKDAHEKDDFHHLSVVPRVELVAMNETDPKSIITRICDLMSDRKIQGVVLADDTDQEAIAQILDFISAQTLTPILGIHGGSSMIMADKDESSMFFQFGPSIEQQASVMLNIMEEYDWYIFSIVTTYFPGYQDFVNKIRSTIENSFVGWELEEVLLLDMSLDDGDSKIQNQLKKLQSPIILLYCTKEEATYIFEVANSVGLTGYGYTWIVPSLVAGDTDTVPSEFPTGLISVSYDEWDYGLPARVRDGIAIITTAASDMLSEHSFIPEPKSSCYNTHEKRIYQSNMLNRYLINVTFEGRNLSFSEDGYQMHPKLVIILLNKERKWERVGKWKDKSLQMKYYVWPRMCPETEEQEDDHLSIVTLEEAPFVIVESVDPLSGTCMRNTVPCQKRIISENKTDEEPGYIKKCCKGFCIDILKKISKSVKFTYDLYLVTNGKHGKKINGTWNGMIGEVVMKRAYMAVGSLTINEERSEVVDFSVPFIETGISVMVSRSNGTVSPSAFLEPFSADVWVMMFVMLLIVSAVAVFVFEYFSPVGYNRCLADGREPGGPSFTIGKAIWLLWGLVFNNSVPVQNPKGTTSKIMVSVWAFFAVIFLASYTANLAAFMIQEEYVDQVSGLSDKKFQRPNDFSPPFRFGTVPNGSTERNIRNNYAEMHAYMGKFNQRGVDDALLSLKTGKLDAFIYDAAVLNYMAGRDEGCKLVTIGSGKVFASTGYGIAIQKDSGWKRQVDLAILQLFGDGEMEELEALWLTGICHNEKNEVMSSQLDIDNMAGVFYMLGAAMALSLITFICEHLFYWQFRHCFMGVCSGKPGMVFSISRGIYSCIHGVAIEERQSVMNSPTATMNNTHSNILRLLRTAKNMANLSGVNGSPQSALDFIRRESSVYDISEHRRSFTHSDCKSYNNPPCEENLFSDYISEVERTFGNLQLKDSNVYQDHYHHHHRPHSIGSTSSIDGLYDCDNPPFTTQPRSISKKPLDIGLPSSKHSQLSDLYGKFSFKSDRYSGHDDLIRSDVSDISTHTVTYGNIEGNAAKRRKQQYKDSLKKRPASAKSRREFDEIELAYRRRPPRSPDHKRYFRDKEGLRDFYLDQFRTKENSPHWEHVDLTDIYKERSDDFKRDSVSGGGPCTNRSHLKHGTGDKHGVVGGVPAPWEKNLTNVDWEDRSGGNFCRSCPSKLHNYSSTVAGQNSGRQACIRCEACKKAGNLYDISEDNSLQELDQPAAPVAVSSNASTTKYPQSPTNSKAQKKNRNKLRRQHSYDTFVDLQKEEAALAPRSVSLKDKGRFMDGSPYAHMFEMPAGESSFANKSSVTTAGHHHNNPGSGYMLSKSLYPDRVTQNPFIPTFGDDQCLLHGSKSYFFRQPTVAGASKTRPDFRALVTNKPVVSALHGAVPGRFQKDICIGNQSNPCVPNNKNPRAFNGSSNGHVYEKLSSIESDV
# method: Fluo-3 Ca2+ influx in primary neurons; […] inhibits NMDA response ([…] AUC); IC50 is against PbTx-2-induced influx
pIC50: −log10 of the molar value.
valueType: pIC50

[[record]]
compound = "CC(C(O)c1ccc(O)cc1)N1CCC(Cc2ccccc2)CC1 (stereo not shown)"
valuetype = "pIC50"
value = 5.66

